tested on: HIV transcripts (TAR, LLTR, Pol, PolyA, TatRev); assay: Cell-associated HIV transcripts (RT-ddPCR) 6 days after anti-CD3/CD28 activation of PBMCs from ART-suppressed PWH; type: cell-based; details: participant 2147a; DMSO+CD3/28 = 1; Fig 4B, C and D
Respond with MET for PolyA/LLTR values of 0.3 and above, NOT MET for values below.

molecule	class name
CCc1cnn2c(NCc3ccc[n+]([O-])c3)cc(N3CCCC[C@H]3CCO)nc12 [dinaciclib]	MET
CN1CC[C@H](c2c(O)cc(O)c3c(=O)cc(-c4ccccc4Cl)oc23)[C@H](O)C1 [alvocidib]	MET
CNc1ccc([N+](=O)[O-])c(Nc2ccc3[nH]ncc3c2)n1 [KRIBB11]	MET
N#CC[C@H](C1CCCC1)n1cc(-c2ncnc3[nH]ccc23)cn1 [ruxolitinib]	NOT MET
CO[C@H]([C@@H](C)[C@H]1O[C@]1(C)C[C@H](C)/C=C/C=C(\C)[C@H]1O[C@@H](CC(=O)O)CC[C@@H]1C)[C@@H](C)O [herboxidiene]	MET

* * *

// reported TatRev/PolyA per item
Tested on: HIV transcripts (TAR, LLTR, Pol, PolyA, TatRev)
Experiment: Cell-associated HIV transcripts (RT-ddPCR) 6 days after anti-CD3/CD28 activation of PBMCs from ART-suppressed PWH
Assay type: cell-based
Details: participant 2027; DMSO+CD3/28 = 1; Fig 4B, C and D
Method: Next, we evaluated the ability of the candidate LPAs to sustain the inhibitory effects during a prolonged ex vivo culture. […] Each drug was tested in PBMCs from at least 6 ART-suppressed study participants (except for KRIBB11, n = 5). […] (A) The levels of all HIV transcripts were normalized to 1 μg of total cellular RNA and expressed as a percentage of the activated DMSO control (% of activated DMSO). […] P values were calculated using Wilcoxon’s signed-rank test: *P < 0.05. […]
measured property: TatRev/PolyA

molecule	observed result
CCc1cnn2c(NCc3ccc[n+]([O-])c3)cc(N3CCCC[C@H]3CCO)nc12 [dinaciclib]	0.1946
N#CC[C@H](C1CCCC1)n1cc(-c2ncnc3[nH]ccc23)cn1 [ruxolitinib]	0
CN1CC[C@H](c2c(O)cc(O)c3c(=O)cc(-c4ccccc4Cl)oc23)[C@H](O)C1 [alvocidib]	0.1413
O=c1c(O)c(-c2ccc(O)c(O)c2)oc2cc(O)cc(O)c12 [quercetin]	0.6894
CC(=O)N[C@@H]1CCC[C@H](C(=O)Nc2cc(-c3cnn4c3CC(C)(C)C4)c(Cl)cn2)C1 [AZD4573]	0
CNc1ccc([N+](=O)[O-])c(Nc2ccc3[nH]ncc3c2)n1 [KRIBB11]	0.1042

* * *

system: PolyA HIV RNA in the supernatant; test: Supernatant viral RNA (polyadenylated HIV RNA, RT-ddPCR) at day 6 after T cell activation; assay type: cell-based; conditions: study participant 5557; day 6
Below is a list of entries, each paired with its recorded Polyadenylated HIV RNA in supernatant (Fig 5) value.
measured property: Polyadenylated HIV RNA in supernatant (Fig 5)

molecule	observed result
CC(C)[C@]12O[C@H]1[C@@H]1O[C@]13[C@]1(O[C@H]1C[C@H]1C4=C(CC[C@@]13C)C(=O)OC4)[C@@H]2O [triptolide]	0 % of activated DMSO
COc1ccc(-c2cc(=O)c3c(O)cc(O)c(-c4cc(-c5cc(=O)c6c(O)cc(O)cc6o5)ccc4OC)c3o2)cc1 [isoginkgetin]	39.4 % of activated DMSO
CN1CC[C@H](c2c(O)cc(O)c3c(=O)cc(-c4ccccc4Cl)oc23)[C@H](O)C1 [alvocidib]	155.63 % of activated DMSO
C=CCNC1=C2C[C@@H](C)C[C@H](OC)[C@H](O)[C@@H](C)/C=C(\C)[C@H](OC(N)=O)[C@@H](OC)/C=C\C=C(/C)C(=O)NC(=CC1=O)C2=O [tanespimycin]	0 % of activated DMSO
CO[C@H]([C@@H](C)[C@H]1O[C@]1(C)C[C@H](C)/C=C/C=C(\C)[C@H]1O[C@@H](CC(=O)O)CC[C@@H]1C)[C@@H](C)O [herboxidiene]	42.05 % of activated DMSO

* * *

tested on: HIV transcripts (TAR, LLTR, Pol, PolyA, TatRev); assay: Latency reversal assay: cell-associated HIV transcripts (RT-ddPCR) 24 hours after anti-CD3/CD28 activation of PBMCs from ART-suppressed PWH; format: cell-based; conditions: 24 hours; compared with activated DMSO; Figure 3B
measured property: HIV transcriptional elongation, ratio LLTR/TAR

compound	tested on	observed result
CNc1ccc([N+](=O)[O-])c(Nc2ccc3[nH]ncc3c2)n1 [KRIBB11]	HIV transcripts (TAR, LLTR, Pol, PolyA, TatRev)	inhibited
C=CCNC1=C2C[C@@H](C)C[C@H](OC)[C@H](O)[C@@H](C)/C=C(\C)[C@H](OC(N)=O)[C@@H](OC)/C=C\C=C(/C)C(=O)NC(=CC1=O)C2=O [tanespimycin]	HIV transcripts (TAR, LLTR, Pol, PolyA, TatRev)	inhibited

* * *

Test system: PolyA HIV RNA in the supernatant
Test: Supernatant viral RNA (polyadenylated HIV RNA, RT-ddPCR) at day 6 after T cell activation
Type: cell-based
Conditions: study participant 2161; day 6
Experimental: PBMCs were cultured in the presence of individual drugs in DMSO or DMSO alone as control, activated (anti-CD3/CD28), and assessed for levels of PolyA HIV RNA in the supernatant at day 6. Each drug was tested in PBMCs from 6 ART-suppressed study participants (except for triptolide, n = 5). […] Polyadenylated HIV RNA in the supernatant was quantified by RT-ddPCR, expressed as copies/mL, and then normalized to the levels of the activated DMSO (% of activated DMSO). […]
measured property: Polyadenylated HIV RNA in supernatant (Fig 5)

molecule	tested on	observed result
CN1CC[C@H](c2c(O)cc(O)c3c(=O)cc(-c4ccccc4Cl)oc23)[C@H](O)C1 [alvocidib]	PolyA HIV RNA in the supernatant	41.86 % of activated DMSO
CC(=O)N[C@@H]1CCC[C@H](C(=O)Nc2cc(-c3cnn4c3CC(C)(C)C4)c(Cl)cn2)C1 [AZD4573]	PolyA HIV RNA in the supernatant	0 % of activated DMSO
CCc1cnn2c(NCc3ccc[n+]([O-])c3)cc(N3CCCC[C@H]3CCO)nc12 [dinaciclib]	PolyA HIV RNA in the supernatant	4.65 % of activated DMSO
N#CC[C@H](C1CCCC1)n1cc(-c2ncnc3[nH]ccc23)cn1 [ruxolitinib]	PolyA HIV RNA in the supernatant	5.81 % of activated DMSO
O=c1c(O)c(-c2ccc(O)c(O)c2)oc2cc(O)cc(O)c12 [quercetin]	PolyA HIV RNA in the supernatant	4.65 % of activated DMSO
CO[C@H]([C@@H](C)[C@H]1O[C@]1(C)C[C@H](C)/C=C/C=C(\C)[C@H]1O[C@@H](CC(=O)O)CC[C@@H]1C)[C@@H](C)O [herboxidiene]	PolyA HIV RNA in the supernatant	4.65 % of activated DMSO
COc1ccc(-c2cc(=O)c3c(O)cc(O)c(-c4cc(-c5cc(=O)c6c(O)cc(O)cc6o5)ccc4OC)c3o2)cc1 [isoginkgetin]	PolyA HIV RNA in the supernatant	0 % of activated DMSO

* * *

system: HIV transcripts (TAR, LLTR, Pol, PolyA, TatRev); assay: Cell-associated HIV transcripts (RT-ddPCR) 6 days after anti-CD3/CD28 activation of PBMCs from ART-suppressed PWH; type: cell-based; details: participant 150b; DMSO+CD3/28 = 1; Fig 4B, C and D
If the reported LLTR/TAR equals or exceeds 0.5, assign rule met. If not, assign rule not met.

compound	class name
O=c1c(O)c(-c2ccc(O)c(O)c2)oc2cc(O)cc(O)c12	rule met
CN1CC[C@H](c2c(O)cc(O)c3c(=O)cc(-c4ccccc4Cl)oc23)[C@H](O)C1	rule met
CO[C@H]([C@@H](C)[C@H]1O[C@]1(C)C[C@H](C)/C=C/C=C(\C)[C@H]1O[C@@H](CC(=O)O)CC[C@@H]1C)[C@@H](C)O	rule met
CC(C)[C@]12O[C@H]1[C@@H]1O[C@]13[C@]1(O[C@H]1C[C@H]1C4=C(CC[C@@]13C)C(=O)OC4)[C@@H]2O [triptolide]	rule not met
CCc1cnn2c(NCc3ccc[n+]([O-])c3)cc(N3CCCC[C@H]3CCO)nc12	rule not met
C=CCNC1=C2C[C@@H](C)C[C@H](OC)[C@H](O)[C@@H](C)/C=C(\C)[C@H](OC(N)=O)[C@@H](OC)/C=C\C=C(/C)C(=O)NC(=CC1=O)C2=O	rule met
N#CC[C@H](C1CCCC1)n1cc(-c2ncnc3[nH]ccc23)cn1	rule met
COc1ccc(-c2cc(=O)c3c(O)cc(O)c(-c4cc(-c5cc(=O)c6c(O)cc(O)cc6o5)ccc4OC)c3o2)cc1	rule met

Reference source for all entries: paper PMC11466185
